Reference source for all entries: ChEMBL document CHEMBL1156552

Organism: Rattus norvegicus
Assay Procedure: Selectivity ratio, IC50 for Imidazoline receptor 1 in Sprague-Dawley rat kidney membrane to Ki for alpha2 adrenoceptor in Sprague-Dawley rat whole brain membrane
Type: cell membranes
Ratio vs 200: less than gives 1; not less than gives -1.

c1ccc(-c2ccccc2CCC2=NCCN2)cc1    1
Oc1ccccc1CCC1=NCCN1    1
Cc1ccccc1CCC1=NCCN1    -1
C1CCC(CCC2=NCCN2)CC1    -1
c1cncc(CCC2=NCCN2)c1    1

Determine whether this compound shows Ratio lower than 200 (ties excluded): O=[N+]([O-])c1cccc(-c2ccccc2CCC2=NCCN2)c1
1

Determine whether this compound shows Ratio lower than 200 (ties excluded): c1csc(CCC2=NCCN2)c1
1

Determine whether this compound shows Ratio lower than 200 (ties excluded): c1c[nH]c(CCC2=NCCN2)c1
1

Determine whether this compound shows Ratio lower than 200 (ties excluded): c1ccc2c(CCC3=NCCN3)cccc2c1
-1

Determine whether this compound shows Ratio lower than 200 (ties excluded): c1ccc(-c2ccsc2)c(CCC2=NCCN2)c1
1

Determine whether this compound shows Ratio lower than 200 (ties excluded): c1ccc(CCC2=NCCN2)cc1
-1

###

Tested on: Mus musculus
Assay Procedure: Decrease in morphine-induced analgesia in CD1 mouse at 10 mg/kg, sc after 30 mins by tail flick test relative to control
Format: functional
Set-up: scale not given: the % may be the effect or the level left
Test Context: route subcutaneous
Activity vs -40%: less than gives y; not less than gives n.

Cc1ccccc1CCC1=NCCN1    y

Determine whether this compound shows Activity lower than -40% (ties excluded): Clc1ccccc1CCC1=NCCN1
n

Determine whether this compound shows Activity lower than -40% (ties excluded): Oc1ccccc1CCC1=NCCN1
n

Determine whether this compound shows Activity lower than -40% (ties excluded): c1ccc(-c2ccsc2)c(CCC2=NCCN2)c1
y
